# Assay Overview: clinical
# Run Conditions: human, plasma, oral, 160 mg, Tmax, 160 mg t.i.w., cycle 1 Last Wednesday, median
Parameter: Tmax

In: Look up Tmax: `C=CC(=O)N1CC[C@H](n2nc(C#Cc3cc(OC)cc(OC)c3)c3c(N)ncnc32)C1`
Out: 5.57 h

###

# Assay Overview: clinical
# Run Conditions: human, plasma, oral, 4 mg, Cmax, 4 mg q.d., cycle 1 Day 1, mean
Parameter: Cmax (ng/mL)
Give just the number in ng/mL; leave the unit off.

In: Which Cmax reading was recorded for the molecule `C=CC(=O)N1CC[C@H](n2nc(C#Cc3cc(OC)cc(OC)c3)c3c(N)ncnc32)C1` ?
Out: 33.1

###

# Assay Overview: clinical
# Run Conditions: human, plasma, oral, 56 mg, T1/2, 56 mg t.i.w., cycle 1 Day 1, mean
Parameter: half-life (h)
# unit: h | format: bare number

In: Find the recorded half-life belonging to C=CC(=O)N1CC[C@H](n2nc(C#Cc3cc(OC)cc(OC)c3)c3c(N)ncnc32)C1 [futibatinib] and report it.
Out: 5.97

###

# Assay Overview: clinical
# Run Conditions: human, plasma, oral, 36 mg, Tmax, 36 mg t.i.w., cycle 1 Day 1, median
Parameter: Tmax (h)
The reply should contain only the number, in h.

In: Request the reported Tmax associated with `C=CC(=O)N1CC[C@H](n2nc(C#Cc3cc(OC)cc(OC)c3)c3c(N)ncnc32)C1`
Out: 2

###

# Assay Overview: clinical
# Run Conditions: human, plasma, oral, 16 mg, Cmax, 16 mg t.i.w., cycle 1 Day 1, mean
Parameter: Cmax
Put down the number, then write its unit next to it.

In: Give the measured Cmax of C=CC(=O)N1CC[C@H](n2nc(C#Cc3cc(OC)cc(OC)c3)c3c(N)ncnc32)C1 [futibatinib] .
Out: 207 ng/mL

###

# Assay Overview: clinical
# Run Conditions: human, plasma, oral, 8 mg, Tmax, 8 mg t.i.w., cycle 1 Day 1, median
Parameter: Tmax (h)
Unit h implied. Number only.

In: Which measured Tmax value corresponds to `C=CC(=O)N1CC[C@H](n2nc(C#Cc3cc(OC)cc(OC)c3)c3c(N)ncnc32)C1` ?
Out: 1.04

###

# Assay Overview: clinical
# Run Conditions: human, plasma, oral, 56 mg, AUC0–last, 56 mg t.i.w., cycle 1 Day 1, mean
Parameter: AUC(0-t) (ng·h/mL)
Answer in ng·h/mL, number only, no unit symbol.

In: Fill blank: measured AUC(0-t) of the molecule `C=CC(=O)N1CC[C@H](n2nc(C#Cc3cc(OC)cc(OC)c3)c3c(N)ncnc32)C1` is ____.
Out: 3290

###

# Assay Overview: clinical
# Run Conditions: human, plasma, oral, 80 mg, T1/2, 80 mg t.i.w., cycle 1 Last Wednesday, mean
Parameter: half-life
Please answer in the form of a number followed by its unit of measurement.

In: Using the record for `C=CC(=O)N1CC[C@H](n2nc(C#Cc3cc(OC)cc(OC)c3)c3c(N)ncnc32)C1` , report its half-life.
Out: 5.28 h

###

# Assay Overview: clinical
# Run Conditions: human, plasma, oral, 24 mg, Cmax, 24 mg q.d., cycle 1 Day 21, mean
Parameter: Cmax
Put down the number, then write its unit next to it.

In: # query: Cmax of entry `C=CC(=O)N1CC[C@H](n2nc(C#Cc3cc(OC)cc(OC)c3)c3c(N)ncnc32)C1`
Out: 194 ng/mL

###

# Assay Overview: clinical
# Run Conditions: human, plasma, oral, 120 mg, Tmax, 120 mg t.i.w., cycle 1 Last Wednesday, median
Parameter: Tmax (h)
Provide the reading as a plain figure in h.

In: For `C=CC(=O)N1CC[C@H](n2nc(C#Cc3cc(OC)cc(OC)c3)c3c(N)ncnc32)C1` , what is its reported Tmax?
Out: 3.17

###

# Assay Overview: clinical
# Run Conditions: human, plasma, oral, 4 mg, Tmax, 4 mg q.d., cycle 1 Day 1, median
Parameter: Tmax (min)
Give the value, in units of min, as a plain number.

In: Returns the measured Tmax for the input compound. Input: `C=CC(=O)N1CC[C@H](n2nc(C#Cc3cc(OC)cc(OC)c3)c3c(N)ncnc32)C1`
Out: 57.6

###

# Assay Overview: clinical
# Run Conditions: human, plasma, oral, 16 mg, Tmax, 16 mg t.i.w., cycle 1 Day 1, median
Parameter: Tmax (h)
Expressed in h, but write only the number.

In: I am curious: what Tmax value has been reported for `C=CC(=O)N1CC[C@H](n2nc(C#Cc3cc(OC)cc(OC)c3)c3c(N)ncnc32)C1` ?
Out: 1

###

# Assay Overview: clinical
# Run Conditions: human, plasma, oral, 8 mg, AUC0–last, 8 mg q.d., cycle 1 Day 21, mean
Parameter: AUC(0-t)

In: Which value of AUC(0-t) has been reported for `C=CC(=O)N1CC[C@H](n2nc(C#Cc3cc(OC)cc(OC)c3)c3c(N)ncnc32)C1` in the records?
Out: 550 ng·h/mL

###

# Assay Overview: clinical
# Run Conditions: human, plasma, oral, 24 mg, Tmax, 24 mg t.i.w., cycle 1 Last Wednesday, median
Parameter: Tmax (h)
Respond with the bare value in h.

In: # Tmax lookup, item C=CC(=O)N1CC[C@H](n2nc(C#Cc3cc(OC)cc(OC)c3)c3c(N)ncnc32)C1 [futibatinib]
Out: 1.05

###

# Assay Overview: clinical
# Run Conditions: human, plasma, oral, 8 mg, T1/2, 8 mg q.d., cycle 1 Day 21, mean
Parameter: half-life (h)
Entry rule: numbers only, all in h.

In: Data request, read-out half-life, for `C=CC(=O)N1CC[C@H](n2nc(C#Cc3cc(OC)cc(OC)c3)c3c(N)ncnc32)C1`
Out: 2.75

###

# Assay Overview: clinical
# Run Conditions: human, plasma, oral, 200 mg, Tmax, 200 mg t.i.w., cycle 1 Day 1, median
Parameter: Tmax (h)
Provide only the numeric value, understood in h.

In: Look at this compound and give its reported Tmax. `C=CC(=O)N1CC[C@H](n2nc(C#Cc3cc(OC)cc(OC)c3)c3c(N)ncnc32)C1`
Out: 2

###

# Assay Overview: clinical
# Run Conditions: human, plasma, oral, 16 mg, T1/2, 16 mg q.d., cycle 1 Day 21, mean
Parameter: half-life (h)
Could you give me the number in h? Just the number is fine.

In: What does the data say about its half-life? Entry: `C=CC(=O)N1CC[C@H](n2nc(C#Cc3cc(OC)cc(OC)c3)c3c(N)ncnc32)C1`
Out: 2.53

###

# Assay Overview: clinical
# Run Conditions: human, plasma, oral, 4 mg, T1/2, 4 mg q.d., cycle 1 Day 1, mean
Parameter: half-life (h)
Write the number in h without appending the unit.

In: Which half-life is reported for this compound? `C=CC(=O)N1CC[C@H](n2nc(C#Cc3cc(OC)cc(OC)c3)c3c(N)ncnc32)C1`
Out: 1.75

###

# Assay Overview: clinical
# Run Conditions: human, plasma, oral, 36 mg, AUC0–last, 36 mg t.i.w., cycle 1 Day 1, mean
Parameter: AUC(0-t) (ng·h/mL)
Kindly answer with a numeric value in ng·h/mL, unit omitted.

In: Request the reported AUC(0-t) associated with `C=CC(=O)N1CC[C@H](n2nc(C#Cc3cc(OC)cc(OC)c3)c3c(N)ncnc32)C1`
Out: 2670

###

# Assay Overview: clinical
# Run Conditions: human, plasma, oral, 16 mg, Tmax, 16 mg t.i.w., cycle 1 Last Wednesday, median
Parameter: Tmax
Enter the number, and then the unit.

In: Need Tmax of `C=CC(=O)N1CC[C@H](n2nc(C#Cc3cc(OC)cc(OC)c3)c3c(N)ncnc32)C1` , thanks.
Out: 1 h

###

# Assay Overview: clinical
# Run Conditions: human, plasma, oral, 8 mg, Tmax, 8 mg q.d., cycle 1 Day 21, median
Parameter: Tmax (h)
All answers are understood in h, so give the number only.

In: So what does the record say about Tmax for `C=CC(=O)N1CC[C@H](n2nc(C#Cc3cc(OC)cc(OC)c3)c3c(N)ncnc32)C1` ?
Out: 2

###

# Assay Overview: clinical
# Run Conditions: human, plasma, oral, 4 mg, Tmax, 4 mg q.d., cycle 1 Day 21, median
Parameter: Tmax (h)
// return numeric value only (unit: h, not printed)

In: Given C=CC(=O)N1CC[C@H](n2nc(C#Cc3cc(OC)cc(OC)c3)c3c(N)ncnc32)C1 [futibatinib] , state its recorded Tmax.
Out: 1.08

###

# Assay Overview: clinical
# Run Conditions: human, plasma, oral, 56 mg, Tmax, 56 mg t.i.w., cycle 1 Last Wednesday, median
Parameter: Tmax (h)
Number only, in h; omit the unit.

In: Can you look up the measured Tmax of `C=CC(=O)N1CC[C@H](n2nc(C#Cc3cc(OC)cc(OC)c3)c3c(N)ncnc32)C1` for me?
Out: 2
